target-under-test: furin, P09958;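 also: purified furin at 1:10 enzyme:substrate in 50 mM HEPES pH 7.5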
Sequence (P09958 whole entry): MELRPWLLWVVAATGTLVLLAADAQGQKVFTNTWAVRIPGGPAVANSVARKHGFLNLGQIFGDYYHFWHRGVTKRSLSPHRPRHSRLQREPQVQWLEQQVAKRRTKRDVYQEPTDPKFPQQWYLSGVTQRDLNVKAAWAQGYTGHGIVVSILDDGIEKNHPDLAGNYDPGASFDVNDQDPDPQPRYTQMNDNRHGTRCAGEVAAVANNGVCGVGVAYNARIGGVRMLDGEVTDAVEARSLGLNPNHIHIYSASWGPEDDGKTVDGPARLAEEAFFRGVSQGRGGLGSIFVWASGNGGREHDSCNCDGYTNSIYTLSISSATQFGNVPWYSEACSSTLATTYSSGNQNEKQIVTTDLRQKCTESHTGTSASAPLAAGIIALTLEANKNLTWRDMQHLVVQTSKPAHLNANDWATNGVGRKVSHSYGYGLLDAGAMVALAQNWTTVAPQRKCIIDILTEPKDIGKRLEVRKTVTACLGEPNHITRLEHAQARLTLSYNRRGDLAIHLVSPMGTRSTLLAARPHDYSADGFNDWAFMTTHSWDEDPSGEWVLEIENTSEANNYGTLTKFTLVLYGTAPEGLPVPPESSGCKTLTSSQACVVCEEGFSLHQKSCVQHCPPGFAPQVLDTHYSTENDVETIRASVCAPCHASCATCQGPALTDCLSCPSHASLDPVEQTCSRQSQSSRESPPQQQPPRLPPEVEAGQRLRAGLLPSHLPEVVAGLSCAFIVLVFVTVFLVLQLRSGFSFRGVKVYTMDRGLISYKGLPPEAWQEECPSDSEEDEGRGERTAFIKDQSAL
method-notes: furin cleavage Z-score vs untreated control; higher = more cleavage, active = 3.5 or more, inactive = 1 or less, 8 variable residues between constant flanks
conditions-used: 15 min
Some of the results follow. How many sequences the whole screen found active is unknown.
property-name: furin cleavage Z-score
Answer as a number with no unit attached.

As a guide, the following entries are already answered.
[
  {
    "sequence-code": "CATTPCSGSCAGNASASA [HC1940]",
    "observed-value": -1.27
  },
  {
    "sequence-code": "CAGPGRPYRAAGNASASA [FS-784]",
    "observed-value": 0.68
  },
  {
    "sequence-code": "CARGRRDFPEAGNASASA [FS-2021]",
    "observed-value": 3.62
  },
  {
    "sequence-code": "CARGRRSPHTAGNASASA [FS-3252]",
    "observed-value": 8.09
  },
  {
    "sequence-code": "CAGARRSRRAAGNASASA [FS-422]",
    "observed-value": 6.59
  }
]

# input Look at this sequence and give its reported furin cleavage Z-score. CAGARRSVIGAGNASASA [FS-1983]
# output 0.507

# input Look at this sequence and give its reported furin cleavage Z-score. CALSTTGEIPAGNASASA [HC844]
# output -0.16

# input Look at this sequence and give its reported furin cleavage Z-score. CARGRRKTGEAGNASASA [FS-3251]
# output -1.86

# input Look at this sequence and give its reported furin cleavage Z-score. CARGRKSPSKAGNASASA [FS-2673]
# output -0.51

# input Look at this sequence and give its reported furin cleavage Z-score. CASTPCSVHLAGNASASA [HC2530]
# output 0.438

# input Look at this sequence and give its reported furin cleavage Z-score. CARARRGVEVAGNASASA [FS-2647]
# output 5.87

# input Look at this sequence and give its reported furin cleavage Z-score. CAGVSRSCRAAGNASASA [FS-1005]
# output 4.22

# input Look at this sequence and give its reported furin cleavage Z-score. CAEVPCHTPSAGNASASA [HC2378]
# output 0.745

# input Look at this sequence and give its reported furin cleavage Z-score. CAWRRRQKRRAGNASASA [FS-898]
# output 12.6

# input Look at this sequence and give its reported furin cleavage Z-score. CARYDRQKRRAGNASASA [FS-866]
# output 8.92
